A set of compounds tested on PLK-1 (Caenorhabditis elegans), with measured IC50:
OBSERVABLE: IC50 (nM)

{"COMPOUND": "C[C@@H](Oc1cc(-n2cnc3ccc(-c4ccncc4)cc32)sc1C(N)=O)c1ccccc1Cl [GSK483724A]", "MEASURED_TARGET": "PLK-1 (Caenorhabditis elegans)", "OBSERVABLE": "IC50", "MEASURED": 91}
{"COMPOUND": "C[C@@H](Oc1cc(-n2cnc3cc(-c4ccncc4)ccc32)sc1C(N)=O)c1ccccc1Cl [GSK479719A]", "MEASURED_TARGET": "PLK-1 (Caenorhabditis elegans)", "OBSERVABLE": "IC50", "MEASURED": 39}

Just for reference, paper PMC8080662 is where these values come from.
